Recorded values, source the supplement of paper PMC9170038.

# Test system: MS2 coat protein
# measurement-protocol: apparent KD of MS2 coat protein, switch OFF state (with FMN for OFF switches, without FMN for ON switches); designed switch direction (-1 OFF switch, 1 ON switch): -1; higher = weaker reporter binding
# run-conditions: FMN input: 0 or 200 uM; Eterna round: R93 (includes R88 designs)
measured-metric: apparent KD of MS2 coat protein
Quick note: number first, unit second.

Below, each entry is followed by its recorded apparent KD of MS2 coat protein result.
>>> assay_value("AGCUACUGAGGAUAUACGAACAUGUCAAAAGACGUAAGGGAACAUGAGGAUCACCCAUGUAGAAGGCAGUAGCA [Diamond 49]")
"91.9 nM"
>>> assay_value("GGAAAACAUGAGGAUCACCCAUGUAAGGAUAUGCUAAAAAAAAAAAAAAACCCACCAGGCAGAAGGUACUAAAG [Janelle Amethyst 18 Mod 2 - Jieux - Exclusion 1]")
"26.8 nM"
>>> assay_value("AGUUGGCGAGGAUAUACAUGAGGAUCACCCAUGUGAAAGAAAAAAGUGAAAAAGAAAAGUAGAAGGCGCUGACA [73%, Moding Norbert Elias, 4]")
"131 nM"
>>> assay_value("GAAAAUGGAGGAUAUACAUGAGGAUCACCCAUGUGUAAAAAAAAUUACACAAAAGAAAGUAGAAGGCCAUAAAG [Mat - Exclusion 3 - Mayanna mod - D106]")
"138 nM"
>>> assay_value("AACUAGUGAGGAUAUGCAAGAAAAAAAAAAAAAAUAAAGGGACAUGAGGAUCACCCAUGUAGAAGGCACUAACA [Diamond 68]")
"58.8 nM"

Record CCUGUGUGAGGAUAUGGUAAAAAAAAAAAAAAAAAGCUCCUCCAGAAGGCACAUGAGGAUCACCCAUGUCGUGG [Jolly's Folly 15 - Jieux - Exclusion 4] . Reported apparent KD of MS2 coat protein: 38.2 nM

Record AUAAUACAUGAGGAUCACCCAUGUCAGGAUAUGCUAAAAUUAAAAUUAAAUCAAAAAUGUAGAAGGGACUAAAU [Exclusion Z3] . Reported apparent KD of MS2 coat protein: 42.9 nM

###

# System: MS2 coat protein
# measurement-protocol: apparent KD of MS2 coat protein; designed switch direction (-1 OFF switch, 1 ON switch): -1; higher = weaker reporter binding
# run-conditions: input ligand: microRNA oligo, concentration not stated
measured-metric: apparent KD of MS2 coat protein (nM)
Just the number in nM, nothing appended.

Below, each entry is followed by its recorded apparent KD of MS2 coat protein result.
>>> assay_value("ACAUGAGGAUCACCCAUGUAAUCAUGAUGGCUGAUGUAGAGCUAGGAUAUGAGUGGCUUUCUAUCUCAGAAGGAGCAAGACUGG [Deportation 40 - Jieux - Exclusion NG 3] (Eterna round: R96, puzzle: Exclusion NG 3)")
31.6
>>> assay_value("GCAGCAUAGUGUAAUAACACAAUACAUGAGGAUCACCCAUGUGAGGAUAUGGACUGGAUUACAGUCCAGAAGGCACAAAGCUGC [Zipper Style 2] (Eterna round: R96, puzzle: Exclusion NG 3)")
13.3
>>> assay_value("UUUAUUAAUUAAUAUAAUAAGAUCACAUGAGGAUCACCCAUGUAGGAUAUCAGCUCGUGUAGAGCUGAGAAGGACAUAAUUAUA [ExNG3/1-B3] (Eterna round: R96, puzzle: Exclusion NG 3)")
27

Consider now this further sequence.
Record UACAUGAGGAUCACCCAUGUUUUGUCGUGUAUGGUAUUUAUCUAGGAUAUCAAUGUAUAUAUUUAUGAGAAGGAGAAUAUUAAU [JMF's solution 42] (Eterna round: R96, puzzle: Exclusion NG 3) . Reported apparent KD of MS2 coat protein: 25.1

###

Here, each record is paired with measured apparent KD of MS2 coat protein data.
# Test system: MS2 coat protein
# measurement-protocol: apparent KD of MS2 coat protein, switch OFF state (with FMN for OFF switches, without FMN for ON switches); designed switch direction (-1 OFF switch, 1 ON switch): -1; higher = weaker reporter binding
# run-conditions: FMN input: 0 or 200 uM; Eterna round: R93 (includes R88 designs)

The reported apparent KD of MS2 coat protein value, MS2 coat protein, for UAAACCCUAGGAUAUACAUGAGGAUCACCCAUGUUUGUCGAAGAACGAACAGUCCUCAGUAGAAGGAGGACGAA [Geriza] reads 24.3 nM

The reported apparent KD of MS2 coat protein value, MS2 coat protein, for ACAAAUGUAGGAUAUACAUGAGGAUCACCCAUGUGGCAGAAACAGCAAACAAGACGAAGUAGAAGGACAACGAC [JR_Exc003-Sub902] reads 28.6 nM

The reported apparent KD of MS2 coat protein value, MS2 coat protein, for GAAUGUCUAGGAUAUACAUGAGGAUCACCCAUGUGUAAAAAUAAAUACACAAAAGAAAGUAGAAGGAGACAAAG [Mat - Exclusion 3 - Mayanna mod - D122] reads 46.5 nM

The reported apparent KD of MS2 coat protein value, MS2 coat protein, for AGGAAACAUGAGGAUCACCCAUGUGAGGAUAUUGAAAAGAAAAGAAAAGAAAGAAGAACAAGAAGGUACAAGAA [Nyuserre Ini] reads 27.3 nM

The reported apparent KD of MS2 coat protein value, MS2 coat protein, for GGUUGGCGAGGAUAUACAUGAGGAUCACCCAUGUGAGAGUAAAAAGUGAGAAAGAAAAGUAGAAGGCGCUGACG [salish99-ex3-46] reads 85.1 nM

The reported apparent KD of MS2 coat protein value, MS2 coat protein, for AAAUAGUUAGGAUAUACAUGAGGAUCACCCAUGUGGACUGAUGUCGCGUGAUUCAGUGGUAGAAGGGACUCAAA [EX2 Malc#36] reads 75 nM

The reported apparent KD of MS2 coat protein value, MS2 coat protein, for AAAAAUGGAGGAUAUACAUGAGGAUCACCCAUGUGAAACAAAAAAAAAAACAAAAAAAGUAGAAGGCCAAAAAA [Gilly Gone Silly 2 - Jieux - Exclusion 3] reads 53.6 nM

###

Here, each record is paired with measured apparent KD of MS2 coat protein data.
# Tested on: MS2 coat protein
# measurement-protocol: apparent KD of MS2 coat protein; designed switch direction (-1 OFF switch, 1 ON switch): -1; higher = weaker reporter binding
# run-conditions: input ligand: none
Just the number in nM, nothing appended.

>>> assay_value("AGAUAGUGCUGAGGAUAUCUUAAUAGAAAGAAUAGAGAAGGCGGACAUGAGGAUCACCCAUGUGAGGUCUUGAGACUACAUGGU [Prohibition 36 - Jieux - Exclusion NG 1] (Eterna round: R96, puzzle: Exclusion NG 1)")
135

The reported apparent KD of MS2 coat protein value, MS2 coat protein, for UAUUAGUAAGGAUAUGAGACGUAGGACGCAAGUCCUACGUCUCAGAAGGUACAUGAGGAUCACCCAUGUCUAUU [Mod of Fisker 10 - Jieux - Exclusion 4] (Eterna round: R97, puzzle: Exclusion 4) reads 22.2

###

Here, each record is paired with measured apparent KD of MS2 coat protein data.
# System: MS2 coat protein
# measurement-protocol: apparent KD of MS2 coat protein; designed switch direction (-1 OFF switch, 1 ON switch): -1; higher = weaker reporter binding
# run-conditions: Eterna round: R95; input ligand: microRNA oligo, concentration not stated
Just the number in nM, nothing appended.

>>> assay_value("UUAUUUCAAGCAAGAUCCUACAUGAGGAUCACCCAUGUGCUCGUCUUAUAAGGUACAGUGACGAAAGUCACAGUACC [Sensor 3, v1 - 000] (puzzle: Sensor v3, turn-off variant 1)")
152
>>> assay_value("AGUAGUAGUAUCCGAUCCUACAUGAGGAUCACCCAUGUAGCUAGACGUGCACGCGAUGCUCGUCAGACUACCGGAUG [salish99_TOv1_r3_041] (puzzle: Sensor v3, turn-off variant 1)")
23
>>> assay_value("UAAUAUAAGCAAAGAUCCUACAUGAGGAUCACCCAUGUGCUCGUCUUAUAAAGUACUAUCACGAAAGUGAUAGUACA [Mat - Sensor v3 - turn-off var 1 - Eli Mod - D81] (puzzle: Sensor v3, turn-off variant 1)")
19.8

Record AAAUCACAUGAGGAUCACCCAUGUGAGGAUAUGAUACUAUGUACUUCGGUACAUAGUAUCAGAAGGCAUAUGGA [Ex1-3: 32] (puzzle: Exclusion 1) . Reported apparent KD of MS2 coat protein: 22.9

Record AGUUGGCGAGGAUAUACAUGAGGAUCACCCAUGUGAGAGAUACUAGUGAGGUCGAUUAGUAGAAGGCGCUGACA [Mat - Exclusion 3 - Mod of JL D77] (puzzle: Exclusion 3) . Reported apparent KD of MS2 coat protein: 31.6

Record UUUUUUUUGUUUUUUGUUUACAUGAGGAUCACCCAUGUGACGAGUUUAUGGGUGAACAAGCUUUUUGCUCGUCUUAU [Sensor v3 - Turn-off variant 1 - 5] (puzzle: Sensor v3, turn-off variant 1) . Reported apparent KD of MS2 coat protein: 17.8

Record UAAUAAAAGGAGGAUAUCGUAUCGGAAACGAUACGAGAAGGCUUAACAUGAGGAUCACCCAUGUUCCUCAAUAA [Mat - Exclusion 6 - Eli Mod - D90] (puzzle: Exclusion 6) . Reported apparent KD of MS2 coat protein: 28.6

Record CUUUUGUGAGGAUAUCAGUAGUAAUAAAAUAAAAUUACUACUGAGAAGGCACAUGAGGAUCACCCAUGUUCCUC [salish99_ex4_r3_018] (puzzle: Exclusion 4) . Reported apparent KD of MS2 coat protein: 37.6

Record GAAAAGGUAGGAUAUACGAAAAAAAAGGGUAGAAAAAAAACACAUGAGGAUCACCCAUGUAGAAGGACCUAAAG [salish99_ex2_r3_090] (puzzle: Exclusion 2) . Reported apparent KD of MS2 coat protein: 25.7

Record CUUAGACAUGAGGAUCACCCAUGUGAGGAUAUGAUGCGAUCGUCGAAAGACGAUAGCAUCAGAAGGCACAUAUG [Fiskers Ex 1 - 6] (puzzle: Exclusion 1) . Reported apparent KD of MS2 coat protein: 132
